test system: SK-MEL-28 melanoma; experiment: NCI tumour cell line growth inhibition, 48 h; in the data active = GI50 below about 0.43 µM; inactive = the rest
Outcomes: label 1 (active), label 0 (inactive)

>>> assigned_label("COc1ccc(C(=O)OC2C(OC3C(O)COC(O[C@H]4C[C@H]5[C@@H]6CC=C7C[C@@H](O)CC[C@]7(C)[C@H]6CC[C@]5(C)[C@H]4[C@H](C)C(=O)CCC(C)C)C3OC(N)=O)OCC(O)C2O)cc1 (stereo not given in full)")
"label 1"
>>> assigned_label("COc1cnc2c(c1)C(=O)c1c-2n(CCCn2ccnc2)c(=O)c2cc(F)ccc12")
"label 1"
>>> assigned_label("COc1cc(C(=O)O[C@H](C(=O)NCCCCCNC(=O)[C@@H](OC(=O)c2cc(OC)cc3c(C)cccc23)[C@]2(C)CO2)[C@]2(C)CO2)c2cccc(C)c2c1")
"label 1"
>>> assigned_label("CCC[CH2][Sn]1([CH2]CCC)[O]C(=O)c2cccnc2[O]1")
"label 0"
>>> assigned_label("C#Cc1c(F)ccc2cc(O)cc(-c3ncc4c(N5CC6CCC(C5)N6)nc(OC[C@@]56CCCN5C[C@H](F)C6)nc4c3F)c12")
"label 0"

Where do the numbers come from? From PubChem BioAssay (NCI).
